System: NCI-H1975 EGFR L858R/T790M cells
Experiment: Cell proliferation, NCI-H1975 EGFR L858R/T790M (CellTiter-Glo, 72 h);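 further: viable cells quantified by luciferase-based ATP luminescence, proliferation expressed relative to DMSO-treated wells (100%) after subtracting a parallel plate read at the time of dosing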
Assay type: cell-based
Conditions: Homo sapiens, NCI-H1975, 72 h, NCI-H1975, 72 h proliferation; read-out: EGFR L858R and T790M mutation GI50
The molecules listed here are annotated with their log10 GI50.
quantity kind: log10 GI50 (log10 of the value in nM)

{"molecule": "C=CC(=O)Nc1cc(Nc2ncnc(Nc3cc(F)c(Cl)cc3C(C)(C)O)n2)c(OC)cc1N1CC[C@@H]2CN(C)C[C@@H]21 [Compound 41]", "log10 GI50": 0.20}
{"molecule": "C=CC(=O)Nc1cc(Nc2ncnc(Nc3cc(Cl)c(F)cc3C(C)(C)O)n2)c(OC)cc1N1CC(CN(C)C)C1 [Compound 39]", "log10 GI50": 0.74}
{"molecule": "C=CC(=O)Nc1cc(Nc2nccc(Nc3cc(Cl)c(F)cc3C(C)(C)O)n2)c(OC)cc1N1CC[C@@H](N(C)C)C1 [Compound 52]", "log10 GI50": 0.52}
{"molecule": "C=CC(=O)Nc1cc(Nc2ncnc(Nc3cc(F)c(F)cc3C(C)(O)CC)n2)c(OC)cc1N1CC[C@H]2CN(C)C[C@H]21 (stereo partly drawn) [Compound 50]", "log10 GI50": 1.48}
{"molecule": "C=CC(=O)Nc1cc(Nc2ncnc(Nc3ccc(C(F)(F)F)cc3C(C)(C)O)n2)c(OC)cc1N(C)CCN(C)C [Compound 13]", "log10 GI50": 1.18}
{"molecule": "C=CC(=O)N1CCC(Oc2cc3c(Nc4ccc(Cl)c(Cl)c4F)ncnc3cc2OC)CC1 [Poziotinib, reference compound]", "log10 GI50": 1.29}
